Provenance of the data: patent US20260356851A1

IC50 values by entry
- Measurement Target: pERK1/2 (Thr202/Tyr204), NCI-1H441 (KRAS G12V) (Homo sapiens, UniProt P01116, G12V)
- Construct: pERK1/2 HTRF read-out
- Sequence (P01116 1-188 isoform P01116-2 G12V): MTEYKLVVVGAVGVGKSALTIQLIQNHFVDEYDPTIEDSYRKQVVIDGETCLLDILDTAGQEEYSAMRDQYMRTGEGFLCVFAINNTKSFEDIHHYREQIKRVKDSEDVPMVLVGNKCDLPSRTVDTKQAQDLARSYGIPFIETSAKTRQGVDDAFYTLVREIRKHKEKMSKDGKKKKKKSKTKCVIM
- Assay Notes: Assay of intracellular pERK1/2 (Thr202/Tyr204) phosphorylation in NCI-H441 cells (KRAS G12V)
- Assay type: cell-based
- Assay Setup: pERK1/2, 2 days, read-out: NCI-H441 (KRAS G12V) IC50
Write down the numeric answer in nM and omit the unit.

| Molecule | Measurement Target | IC50 / nM |
| --- | --- | --- |
| [2H]C1([2H])CC[C@@]2(C([2H])([2H])Oc3nc4c5c(nc(-c6cc(N)c(F)c(C)c6C(F)(F)F)c(F)c5n3)OCCN4C(C)c3cccnc3N)C[C@@H](F)CN12 (single isomer, unassigned) [Compound 124] | pERK1/2 (Thr202/Tyr204), NCI-1H441 (KRAS G12V) (Homo sapiens, UniProt P01116, G12V) | 0.3 |
| Cc1c(C(F)(F)F)c(-c2nc3c4c(nc(OC[C@@]56CCCN5C[C@H](F)C6)nc4c2F)N(C(C)c2cc(F)cnc2N)[C@@H](C)CO3)c2cn[nH]c2c1F (stereo partly drawn) [Compound 368] | pERK1/2 (Thr202/Tyr204), NCI-1H441 (KRAS G12V) (Homo sapiens, UniProt P01116, G12V) | 0.3 |
| Cc1n[nH]c2cc3ccccc3c(-c3nc4c5c(nc(OC[C@@]67CCCN6C[C@H](F)C7)nc5c3F)N(C(C)c3cccnc3N)[C@@H](C)CO4)c12 (stereo partly drawn) [Compound 401] | pERK1/2 (Thr202/Tyr204), NCI-1H441 (KRAS G12V) (Homo sapiens, UniProt P01116, G12V) | 0.4 |

stdin: Quick one: IC50 of CC(c1cccnc1N)N1CCOc2nc(-c3cc(N)cc(Cl)c3C3CC3)c(F)c3nc(OCC4(C#N)CC4)nc1c23 (stereo not drawn) [Compound 68] ?
stdout: 506

stdin: [2H]C([2H])(Oc1nc2c3c(nc(-c4cc(N)cc(Cl)c4C(F)(F)F)c(F)c3n1)OCCN2C(C)c1cccnc1N)[C@@H]1CCC([2H])([2H])N1C([2H])([2H])[2H] (stereo partly drawn) [Compound 112] ?
stdout: 2

stdin: Entry to check: Cc1cc(F)c2sc(N)nc2c1-c1nc2c3c(nc(OC[C@@]45CCCN4C[C@H](F)C5)nc3c1F)N(C(C)c1cccnc1N)[C@@H](C)CO2 (stereo partly drawn) [Compound 340]
stdout: 4

---

- Measurement Target: pERK1/2 (Thr202/Tyr204), NCI-1H358 (KRAS G12C) (Homo sapiens, UniProt P01116, G12C)
- Construct: pERK1/2 HTRF read-out
- Sequence (P01116 1-188 isoform P01116-2 G12C): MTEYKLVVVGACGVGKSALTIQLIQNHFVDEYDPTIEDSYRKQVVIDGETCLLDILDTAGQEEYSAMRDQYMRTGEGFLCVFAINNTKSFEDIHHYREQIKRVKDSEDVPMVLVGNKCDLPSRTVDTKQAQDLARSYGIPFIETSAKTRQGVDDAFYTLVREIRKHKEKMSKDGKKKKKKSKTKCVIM
- Assay Notes: Assay of intracellular pERK1/2 (Thr202/Tyr204) phosphorylation in NCI-H358 cells (KRAS G12C)
- Assay type: cell-based
- Assay Setup: pERK1/2, 2 days, read-out: NCI-H358 (KRAS G12C) IC50
- From the text: Example 2: Assay of intracellular pERK1/2 (Thr202/Tyr204)phosphorylation 1. […] Fluorescence ratio=fluorescence value665 nm/fluorescence value615 nm Inhibition rate (%)=100−((fluorescence ratio of compound well−fluorescence ratio of negative control well)/(fluorescence ratio of positive control well−fluorescence ratio of negative control well))×100 […]
pIC50: −log10 of the molar value.
Met means recorded pIC50 is 8 or above; Not met means it is below 8.

| Compound | Measurement Target | Category Label |
| --- | --- | --- |
| Cc1cc(N)cc(-c2nc3c4c(nc(OC[C@@H]5CCCN5C)nc4c2F)N(C(C)c2cccnc2N)CCO3)c1C(F)(F)F (single isomer, unassigned) [Compound 77] | pERK1/2 (Thr202/Tyr204), NCI-1H358 (KRAS G12C) (Homo sapiens, UniProt P01116, G12C) | Not met |
| Cc1cc2[nH]ncc2c(-c2nc3c4c(nc(OC[C@@]56CCCN5C[C@H](F)C6)nc4c2F)N(C(C)c2cc(Cl)cnc2N)[C@@H](C)CO3)c1C(F)(F)F (some centres unmarked) | pERK1/2 (Thr202/Tyr204), NCI-1H358 (KRAS G12C) (Homo sapiens, UniProt P01116, G12C) | Met |
| CC(c1cccnc1N)N1c2nc(OC[C@@]34CCCN3C[C@H](F)C4)nc3c(F)c(-c4cc(O)cc(Cl)c4C(F)(F)F)nc(c23)OC[C@@H]1C (some centres unmarked) | pERK1/2 (Thr202/Tyr204), NCI-1H358 (KRAS G12C) (Homo sapiens, UniProt P01116, G12C) | Met |

Switching to the query record.
stdin: Is the recorded value of pIC50 equal to or greater than 8 for this compound? Cc1c(F)c(N)cc(-c2nc3c4c(nc(OCC56CC(F)CN5CC(F)C6)nc4c2F)N(C(C)c2cccnc2N)CCO3)c1C(F)(F)F (single isomer, unassigned; diastereomer 1) [Compound 241]
stdout: Met
